From: paper PMC8130708

target: NSD2-PWWP1 (Homo sapiens, UniProt O96028); assay type: binding; conditions: relative to parent compound 2 or 3; Tables 1 and 2 (images, DSLS/SPR)
Sequence (O96028 222-286 limits assumed): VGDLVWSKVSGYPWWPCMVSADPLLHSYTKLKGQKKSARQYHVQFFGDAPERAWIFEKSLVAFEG
property: potency on NSD2-PWWP1, SAR statement in words

compound: Cc1ccc(C(=O)N2CCCC2c2ccc(Cl)cc2)cc1 (stereo not drawn) [Compound 2i]
assayedTarget: NSD2-PWWP1 (Homo sapiens, UniProt O96028)
observedValue: abolished activity

compound: O=C(c1ccccc1)N1CCCC1c1ccccc1 (stereo not drawn) [Compound 2h]
assayedTarget: NSD2-PWWP1 (Homo sapiens, UniProt O96028)
observedValue: abolished activity
